- tested system: EphB2(h) (Homo sapiens)
- Sequence (P29323 19-1055): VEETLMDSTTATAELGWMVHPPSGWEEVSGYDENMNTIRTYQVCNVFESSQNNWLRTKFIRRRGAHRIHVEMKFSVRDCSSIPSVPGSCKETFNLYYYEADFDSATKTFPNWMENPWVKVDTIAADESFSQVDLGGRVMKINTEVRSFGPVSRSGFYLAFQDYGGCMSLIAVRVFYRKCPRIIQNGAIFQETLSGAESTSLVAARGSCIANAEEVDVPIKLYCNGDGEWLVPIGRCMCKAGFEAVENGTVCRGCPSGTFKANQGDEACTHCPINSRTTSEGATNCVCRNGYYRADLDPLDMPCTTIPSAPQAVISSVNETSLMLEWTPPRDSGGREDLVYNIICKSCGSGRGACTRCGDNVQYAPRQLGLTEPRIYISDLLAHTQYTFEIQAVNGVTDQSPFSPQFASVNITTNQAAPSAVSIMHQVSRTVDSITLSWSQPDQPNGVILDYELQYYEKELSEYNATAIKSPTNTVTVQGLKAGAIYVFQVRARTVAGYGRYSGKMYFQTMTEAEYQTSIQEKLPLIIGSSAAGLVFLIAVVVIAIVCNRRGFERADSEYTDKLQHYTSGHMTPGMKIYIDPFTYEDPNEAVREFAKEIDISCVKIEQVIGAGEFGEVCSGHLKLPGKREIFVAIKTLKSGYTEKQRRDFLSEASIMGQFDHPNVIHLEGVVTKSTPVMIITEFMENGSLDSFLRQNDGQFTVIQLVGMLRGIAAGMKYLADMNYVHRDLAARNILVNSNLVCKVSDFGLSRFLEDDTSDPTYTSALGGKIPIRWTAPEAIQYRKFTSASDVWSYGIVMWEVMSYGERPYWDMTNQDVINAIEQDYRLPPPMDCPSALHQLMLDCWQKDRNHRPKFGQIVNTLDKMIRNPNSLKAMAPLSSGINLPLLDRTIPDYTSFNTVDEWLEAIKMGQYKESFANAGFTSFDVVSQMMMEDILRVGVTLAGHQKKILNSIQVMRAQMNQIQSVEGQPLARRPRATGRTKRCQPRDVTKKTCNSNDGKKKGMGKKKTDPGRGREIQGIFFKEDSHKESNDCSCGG
- method description: Kinase Profiling Assay
- Format: biochemical
- protocol conditions: 100 μM peptide
quantity name: EphB2(h) % activity (%)
Value expressed in %; do not type the unit.

Prompt line: Annotate the sequence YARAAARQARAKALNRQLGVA (Mammalian) [MMI-0200] with its measured EphB2(h) % activity.
Response line: 128

Prompt line: Annotate the sequence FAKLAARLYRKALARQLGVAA [MMI-0300] with its measured EphB2(h) % activity.
Response line: 18

Prompt line: Annotate the sequence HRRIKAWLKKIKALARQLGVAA (Mammalian) [MMI-0500] with its measured EphB2(h) % activity.
Response line: 70

--- query ---
Prompt line: Annotate the sequence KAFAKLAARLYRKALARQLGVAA [MMI-0400] with its measured EphB2(h) % activity.
Response line: 22

###

Below, each of the sequences is paired with its reported CDK6/cyclinD3(h) % activity value.
- tested system: CDK6/cyclinD3(h) (Homo sapiens)
- Sequence (Q00534 whole entry): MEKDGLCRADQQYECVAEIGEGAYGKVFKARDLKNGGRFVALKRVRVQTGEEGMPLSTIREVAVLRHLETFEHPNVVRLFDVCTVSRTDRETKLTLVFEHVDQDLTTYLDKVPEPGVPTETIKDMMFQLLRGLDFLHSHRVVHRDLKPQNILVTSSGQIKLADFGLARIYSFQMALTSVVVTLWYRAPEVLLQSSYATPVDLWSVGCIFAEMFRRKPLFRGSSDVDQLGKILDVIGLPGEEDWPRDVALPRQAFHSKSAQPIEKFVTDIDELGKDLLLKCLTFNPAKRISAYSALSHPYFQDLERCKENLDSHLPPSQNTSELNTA
- Sequence (P30281 whole entry partner): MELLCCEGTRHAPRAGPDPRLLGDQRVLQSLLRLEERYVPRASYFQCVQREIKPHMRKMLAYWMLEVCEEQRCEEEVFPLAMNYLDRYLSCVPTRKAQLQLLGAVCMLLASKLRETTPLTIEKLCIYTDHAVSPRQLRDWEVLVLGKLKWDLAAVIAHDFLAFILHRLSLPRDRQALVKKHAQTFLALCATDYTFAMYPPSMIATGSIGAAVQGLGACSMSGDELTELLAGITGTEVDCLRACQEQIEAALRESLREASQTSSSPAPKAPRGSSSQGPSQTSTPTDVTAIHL
- method description: Kinase Profiling Assay
- Format: biochemical
- protocol conditions: 100 μM peptide
- Procedure: Every kinase activity measurement was conducted in duplicate. In addition to determining the IC50 of the compound, the specificity of MK2 inhibitory peptides was assessed by examining activities of all 266 human kinases available for testing in the Millipore kinase profiling service (Table 1).
Please give the number followed by its unit.

Consider the following illustrative entries.
Prompt line: Annotate the sequence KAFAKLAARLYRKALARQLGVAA [MMI-0400] with its measured CDK6/cyclinD3(h) % activity.
Response line: 85%

Prompt line: Annotate the sequence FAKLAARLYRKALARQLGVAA [MMI-0300] with its measured CDK6/cyclinD3(h) % activity.
Response line: 86%

Prompt line: Annotate the sequence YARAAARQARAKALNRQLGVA (Mammalian) [MMI-0200] with its measured CDK6/cyclinD3(h) % activity.
Response line: 100%

--- query ---
Prompt line: Annotate the sequence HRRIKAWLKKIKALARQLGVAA (Mammalian) [MMI-0500] with its measured CDK6/cyclinD3(h) % activity.
Response line: 23%

Provenance of the data: patent US10562947B2
